Biological target: T1, B-Raf kinase, P15056
T1 chain: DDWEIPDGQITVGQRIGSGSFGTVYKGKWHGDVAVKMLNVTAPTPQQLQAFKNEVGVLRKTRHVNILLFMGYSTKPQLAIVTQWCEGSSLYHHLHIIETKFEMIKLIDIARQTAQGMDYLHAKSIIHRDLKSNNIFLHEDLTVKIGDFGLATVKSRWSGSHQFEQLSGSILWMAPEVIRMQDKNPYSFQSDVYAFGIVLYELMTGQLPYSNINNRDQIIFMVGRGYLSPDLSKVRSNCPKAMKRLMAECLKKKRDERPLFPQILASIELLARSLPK
Test: intrinsic fluorescence titration (ITF) of B-Raf in solution
So basically, if Kd comes in under 3000 nM it's 1, and if it's 3000 nM or more it's -1.

Kd strictly < 3000 nM for this binder? VLAKTRHVNILLFMG (modifications not checked) [SEQ ID NO: 22 (504-518 R506A, …)]
1

***
Kd strictly < 3000 nM for this binder? VLRKTRHVNILLAMG (modifications not checked) [SEQ ID NO: 29 (504-518 F516A, …)]
1

Kd strictly < 3000 nM for this binder? LRKTRHVNILLFMG (modifications not checked) [SEQ ID NO: 31 (…)]
1

Kd strictly < 3000 nM for this binder? VLRKTRAVNILLFMG (modifications not checked) [SEQ ID NO: 25 (504-518 H510A, …)]
1

Kd strictly < 3000 nM for this binder? GVLRKTRHANILLFMGYST (modifications not checked) [SEQ ID NO: 10 (503-521 V511A, …)]
-1
